- Subject of test: NMDA (NR2B) (Homo sapiens, UniProt Q05586+Q13224)
- Sequence (Q13224 27-1484, species assumed, other chains not shown): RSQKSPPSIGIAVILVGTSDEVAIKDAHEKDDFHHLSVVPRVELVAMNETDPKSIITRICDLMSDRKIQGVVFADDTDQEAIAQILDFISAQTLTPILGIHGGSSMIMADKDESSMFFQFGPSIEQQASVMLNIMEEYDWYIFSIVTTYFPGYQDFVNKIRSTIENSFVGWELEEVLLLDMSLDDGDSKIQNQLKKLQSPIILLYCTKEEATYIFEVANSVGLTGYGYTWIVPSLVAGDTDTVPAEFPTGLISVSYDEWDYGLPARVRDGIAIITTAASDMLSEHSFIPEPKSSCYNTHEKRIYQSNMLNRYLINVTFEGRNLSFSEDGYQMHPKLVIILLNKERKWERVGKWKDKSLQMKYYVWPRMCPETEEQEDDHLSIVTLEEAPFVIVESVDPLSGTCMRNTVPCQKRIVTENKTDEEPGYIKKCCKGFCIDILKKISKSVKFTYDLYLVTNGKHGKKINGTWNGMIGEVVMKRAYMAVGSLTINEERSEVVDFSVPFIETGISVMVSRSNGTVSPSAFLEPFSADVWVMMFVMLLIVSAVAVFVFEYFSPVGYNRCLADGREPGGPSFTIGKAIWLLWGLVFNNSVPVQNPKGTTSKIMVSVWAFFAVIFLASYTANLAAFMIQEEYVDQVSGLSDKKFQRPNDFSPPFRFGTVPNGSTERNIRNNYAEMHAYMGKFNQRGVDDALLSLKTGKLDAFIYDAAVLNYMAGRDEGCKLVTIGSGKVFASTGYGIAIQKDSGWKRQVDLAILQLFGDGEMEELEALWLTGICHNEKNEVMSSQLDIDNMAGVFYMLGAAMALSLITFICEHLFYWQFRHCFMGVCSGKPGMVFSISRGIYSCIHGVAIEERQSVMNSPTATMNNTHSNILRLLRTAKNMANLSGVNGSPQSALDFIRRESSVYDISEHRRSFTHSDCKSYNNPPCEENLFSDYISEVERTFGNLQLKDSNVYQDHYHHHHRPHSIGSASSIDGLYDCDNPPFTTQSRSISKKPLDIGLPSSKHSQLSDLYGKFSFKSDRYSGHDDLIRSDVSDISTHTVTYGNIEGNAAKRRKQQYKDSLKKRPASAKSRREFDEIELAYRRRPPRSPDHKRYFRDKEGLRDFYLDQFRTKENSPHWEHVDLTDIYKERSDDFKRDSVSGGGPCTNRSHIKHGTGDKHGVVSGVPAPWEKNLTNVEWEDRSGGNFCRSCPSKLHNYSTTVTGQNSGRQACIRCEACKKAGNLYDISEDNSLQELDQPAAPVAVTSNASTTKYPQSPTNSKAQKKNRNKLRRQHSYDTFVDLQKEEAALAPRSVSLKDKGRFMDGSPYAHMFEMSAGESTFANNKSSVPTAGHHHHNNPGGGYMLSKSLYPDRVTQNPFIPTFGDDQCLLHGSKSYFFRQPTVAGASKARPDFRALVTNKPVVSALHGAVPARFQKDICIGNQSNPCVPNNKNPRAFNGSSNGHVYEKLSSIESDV
- Method: Off‐target panel: NMDA (NR2B)
Measurement label: IC50

Prompt: Hello, I am looking for reported IC50 with NMDA (NR2B) (Homo sapiens, UniProt Q05586+Q13224) for CCC[C@@H](NC(=O)c1cccc2c1CC(=O)N2)[C@@H](O)c1cccc(F)c1C . Could you help?
Completion: > 50.1 µM

###

- Subject of test: Serotonin 5HT3 (Homo sapiens, UniProt P46098)
- Sequence (P46098 24-478): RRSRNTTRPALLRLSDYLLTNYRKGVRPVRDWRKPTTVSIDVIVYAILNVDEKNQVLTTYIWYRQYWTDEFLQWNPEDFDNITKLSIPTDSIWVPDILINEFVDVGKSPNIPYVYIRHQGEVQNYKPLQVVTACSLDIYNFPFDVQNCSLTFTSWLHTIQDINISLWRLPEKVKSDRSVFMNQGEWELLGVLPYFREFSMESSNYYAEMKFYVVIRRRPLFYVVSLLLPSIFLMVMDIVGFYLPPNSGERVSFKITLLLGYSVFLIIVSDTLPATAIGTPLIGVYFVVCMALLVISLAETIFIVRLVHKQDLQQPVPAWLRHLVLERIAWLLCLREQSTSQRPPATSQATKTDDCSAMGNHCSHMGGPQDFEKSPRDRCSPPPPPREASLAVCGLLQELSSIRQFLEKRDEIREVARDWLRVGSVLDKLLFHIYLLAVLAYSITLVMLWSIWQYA
- Method: Off‐target panel: Serotonin 5HT3 (DRX)
- Type: cell-based
pEC50: −log10 of the molar value.
Measurement label: pEC50

Prompt: # lookup: pEC50 of CCC[C@@H](NC(=O)c1cccc2c1CC(=O)N2)[C@@H](O)c1cccc(F)c1C
Completion: < 4.30

###

- Subject of test: OPRM1 (Homo sapiens, UniProt P35372)
- Sequence (P35372 whole entry, species assumed): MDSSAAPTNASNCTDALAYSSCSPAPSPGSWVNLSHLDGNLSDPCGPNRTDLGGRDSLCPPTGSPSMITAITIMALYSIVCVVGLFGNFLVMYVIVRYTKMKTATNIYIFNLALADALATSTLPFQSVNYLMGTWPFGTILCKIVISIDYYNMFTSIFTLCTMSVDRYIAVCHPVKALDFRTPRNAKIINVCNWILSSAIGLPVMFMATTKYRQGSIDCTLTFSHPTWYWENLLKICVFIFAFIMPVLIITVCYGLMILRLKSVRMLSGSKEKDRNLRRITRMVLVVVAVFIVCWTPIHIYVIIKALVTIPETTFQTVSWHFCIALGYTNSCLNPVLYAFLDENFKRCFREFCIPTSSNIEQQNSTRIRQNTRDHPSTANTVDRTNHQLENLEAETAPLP
- Method: Off‐target panel: OPRM1 (DRX)
- Type: cell-based
Measurement label: pEC50
Recall that pEC50 is obtained by taking minus log10 of the concentration measured in molar.

Prompt: If you can, please state the reported pEC50 value of CCC[C@@H](NC(=O)c1cccc2c1CC(=O)N2)[C@@H](O)c1cccc(F)c1C .
Completion: 5.00

###

- Subject of test: Adrenergic β2 (Homo sapiens)
- Sequence (P07550 whole entry): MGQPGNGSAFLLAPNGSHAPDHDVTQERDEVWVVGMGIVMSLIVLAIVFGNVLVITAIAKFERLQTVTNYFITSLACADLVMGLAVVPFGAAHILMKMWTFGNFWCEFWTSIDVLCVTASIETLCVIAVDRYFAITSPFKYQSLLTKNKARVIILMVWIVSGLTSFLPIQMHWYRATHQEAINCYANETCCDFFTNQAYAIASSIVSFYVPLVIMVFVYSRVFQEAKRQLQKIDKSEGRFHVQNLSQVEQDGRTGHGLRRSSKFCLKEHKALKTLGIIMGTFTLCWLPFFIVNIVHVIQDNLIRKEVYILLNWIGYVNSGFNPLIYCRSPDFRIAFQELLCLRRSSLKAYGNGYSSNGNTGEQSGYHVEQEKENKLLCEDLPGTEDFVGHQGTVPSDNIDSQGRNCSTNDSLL
- Method: Off‐target panel: Adrenergic β2
- Type: cell-based
- Condition label: Antagonist, read-out: Mean (PXC50)
pIC50: −log10 of the molar value.
Measurement label: pIC50

Prompt: Need pIC50, item CCC[C@@H](NC(=O)c1cccc2c1CC(=O)N2)[C@@H](O)c1cccc(F)c1C
Completion: < 4.00

###

- Subject of test: Muscarinic M2 (Homo sapiens, UniProt P08172)
- Sequence (P08172 whole entry): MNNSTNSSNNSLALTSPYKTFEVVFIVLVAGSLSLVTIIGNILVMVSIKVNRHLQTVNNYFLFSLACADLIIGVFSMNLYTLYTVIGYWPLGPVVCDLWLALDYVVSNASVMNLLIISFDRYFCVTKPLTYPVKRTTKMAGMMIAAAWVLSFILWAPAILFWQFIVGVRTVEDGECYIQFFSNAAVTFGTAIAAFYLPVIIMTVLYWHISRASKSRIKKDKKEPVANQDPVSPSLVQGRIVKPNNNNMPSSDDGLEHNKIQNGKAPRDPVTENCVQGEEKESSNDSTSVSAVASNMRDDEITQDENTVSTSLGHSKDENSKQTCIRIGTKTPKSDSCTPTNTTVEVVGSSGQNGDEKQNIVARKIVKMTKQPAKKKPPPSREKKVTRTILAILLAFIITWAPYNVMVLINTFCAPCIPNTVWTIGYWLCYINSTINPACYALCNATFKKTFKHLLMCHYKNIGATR
- Method: Off‐target panel: Muscarinic M2
- Assay type: cell-based
Measurement label: EC50

Prompt: Recorded EC50 for CCC[C@@H](NC(=O)c1cccc2c1CC(=O)N2)[C@@H](O)c1cccc(F)c1C [GSK716] , please?
Completion: > 50.1 µM

###

- Subject of test: UniProtKB P07550
- Method: Off‐target panel: Adrenergic β2 (DRX)
- Format: cell-based
- Condition label: Antagonist, read-out: Mean (PXC50)
Measurement label: IC50

Prompt: Query for UniProtKB P07550: what IC50 does the record show for CCC[C@@H](NC(=O)c1cccc2c1CC(=O)N2)[C@@H](O)c1cccc(F)c1C ?
Completion: > 100 µM

###

- Method: Total and unbound drug concentrations in blood and liver of Z α1‐antitrypsin transgenic mice
- Type: in vivo
- Condition label: female, Z α1-antitrypsin transgenic (hemizygous), mouse, liver, oral, 10 mg/kg, 10 mg/kg three times a day, time 123 h; read-out: TOTAL mean concentration ± SD, Liver
Measurement label: concentration at 123 h (µM)
Form entry: value (µM) — number only.

Prompt: Field request: concentration at 123 h | item: CCC[C@@H](NC(=O)c1cccc2c1CC(=O)N2)[C@@H](O)c1cccc(F)c1C
Completion: 3.5

###

- Subject of test: PDE4B (Homo sapiens, UniProt Q07343)
- Sequence (Q07343 whole entry, species assumed): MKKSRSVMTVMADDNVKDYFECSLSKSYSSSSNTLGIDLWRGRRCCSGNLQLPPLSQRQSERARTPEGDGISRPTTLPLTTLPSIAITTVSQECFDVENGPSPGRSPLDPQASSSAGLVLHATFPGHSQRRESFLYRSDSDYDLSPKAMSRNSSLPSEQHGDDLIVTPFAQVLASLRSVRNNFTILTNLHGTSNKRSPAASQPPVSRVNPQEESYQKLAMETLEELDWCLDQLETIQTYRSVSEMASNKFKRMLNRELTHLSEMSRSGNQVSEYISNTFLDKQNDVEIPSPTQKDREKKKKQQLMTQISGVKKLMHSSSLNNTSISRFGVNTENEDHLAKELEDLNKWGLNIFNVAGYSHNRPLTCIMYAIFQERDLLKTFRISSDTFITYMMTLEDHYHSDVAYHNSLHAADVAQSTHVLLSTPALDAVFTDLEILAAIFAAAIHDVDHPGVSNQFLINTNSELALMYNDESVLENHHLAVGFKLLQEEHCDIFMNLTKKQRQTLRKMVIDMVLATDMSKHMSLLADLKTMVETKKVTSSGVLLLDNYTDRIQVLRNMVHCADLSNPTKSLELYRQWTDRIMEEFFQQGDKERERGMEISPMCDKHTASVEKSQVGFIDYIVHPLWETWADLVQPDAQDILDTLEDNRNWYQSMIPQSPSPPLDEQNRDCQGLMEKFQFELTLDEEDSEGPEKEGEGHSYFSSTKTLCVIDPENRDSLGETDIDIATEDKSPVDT
pIC50: −log10 of the molar value.
Measurement label: pIC50

Prompt: Could you share what pIC50 was measured for CCC[C@@H](NC(=O)c1cccc2c1CC(=O)N2)[C@@H](O)c1cccc(F)c1C , tested on PDE4B (Homo sapiens, UniProt Q07343)?
Completion: < 4.00

Reference source for all entries: paper PMC7933930
